Reported IC50 values for the following compounds.
target: human SGLT2 (Homo sapiens (Human)); assay: Inhibitory effects on human SGLT2 activities (14C-AMG uptake, sodium-dependent glucose transport assay); details: CHO cells stably expressing hSGLT2, 37° C., 2 h, single determinations
Sequence (P31639 whole entry): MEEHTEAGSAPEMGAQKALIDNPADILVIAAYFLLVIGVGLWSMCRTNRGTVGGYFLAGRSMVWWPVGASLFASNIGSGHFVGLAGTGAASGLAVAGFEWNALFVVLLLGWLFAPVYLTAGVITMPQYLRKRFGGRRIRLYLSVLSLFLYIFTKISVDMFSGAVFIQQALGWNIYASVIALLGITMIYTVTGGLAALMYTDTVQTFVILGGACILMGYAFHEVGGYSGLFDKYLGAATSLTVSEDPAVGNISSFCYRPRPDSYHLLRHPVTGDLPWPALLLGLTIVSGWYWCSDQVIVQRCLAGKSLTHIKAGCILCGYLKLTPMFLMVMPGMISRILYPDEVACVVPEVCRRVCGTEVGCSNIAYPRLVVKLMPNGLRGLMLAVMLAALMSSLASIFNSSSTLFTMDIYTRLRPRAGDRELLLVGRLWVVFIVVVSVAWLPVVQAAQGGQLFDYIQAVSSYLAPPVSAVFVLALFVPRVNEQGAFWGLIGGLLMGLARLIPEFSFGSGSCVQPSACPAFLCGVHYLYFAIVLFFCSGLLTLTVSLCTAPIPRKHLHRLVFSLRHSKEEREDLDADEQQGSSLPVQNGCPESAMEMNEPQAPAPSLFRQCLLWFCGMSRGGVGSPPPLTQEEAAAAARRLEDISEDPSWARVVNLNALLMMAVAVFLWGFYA

1. OCCCOc1ccc(Cc2cc([C@@H]3O[C@H](CO)[C@@H](O)[C@H](O)[C@H]3O)c3c(c2Cl)OCC3)cc1 [Example E193]	1.87 nM
2. OC[C@H]1O[C@@H](c2cc(Cc3ccc4c(c3)OCCO4)c(Cl)c3c2CCO3)[C@H](O)[C@@H](O)[C@@H]1O [Example E045]	1.37 nM
3. COc1ccc(Cc2cc([C@@H]3O[C@H](CO)[C@@H](O)[C@H](O)[C@H]3O)c3c(c2Cl)OCCC3)cc1 [Example E156]	2.09 nM

For the next question, use this compound.
Form field IC50, entry OC[C@H]1O[C@@H](c2ccc(Cl)c(Cc3ccc4c(c3)OCCO4)c2)[C@H](O)[C@@H](O)[C@@H]1O [Example E049] : 1.23 nM
